test system: pigweed; assay: Test A postemergence; type: in vivo, Amaranthus retroflexus; settings: 500 g ai/ha, 0 to 100 scale where 0 is no effect and 100 is complete control
A collection of molecules and their measured Plant response rating, Pigweed
Respond with the number and no other words.

Exercise: Which measured Plant response rating, Pigweed value corresponds to CCOc1cnn(-c2ccccc2Oc2ncc(Cl)cn2)c1 ?
Key: 100

###

tested on: pigweed; assay: Test A preemergence; format: in vivo, Amaranthus retroflexus; settings: 1000 g ai/ha, 0 to 100 scale, 0 no effect, 100 complete control, approx. 10 days
Description: […]
# binarize Pigweed plant response rating: threshold 90 inclusive, high side 1 (yes), low side 0 (no)

Study these solved cases before continuing.
Compound | Class
CC(=O)Oc1cccc(Oc2ncc(Cl)cn2)c1-n1cc(Br)cn1 [Compound 67] | 1 (yes)
FCc1cn(-c2c(F)cccc2Oc2ncc(Cl)cn2)nn1 [Compound 154] | 1 (yes)
COc1ccc(I)c(-n2cc(Br)cn2)c1Oc1ncc(Cl)cn1 [Compound 207] | 0 (no)

Could you now consider this next compound?
Exercise: Dear colleague, could you confirm whether CNC(=O)c1cccc(Oc2ncc(Cl)cn2)c1-n1cc(C(F)(F)F)cn1 [Compound 256] has Pigweed plant response rating at or above 90?
Key: 0 (no)

###

system: velvetleaf; assay: Test C preemergence; type: in vivo, Abutilon theophrasti; conditions: 16 g ai/ha, preemergence; scale 0 to 100 (0 no effect, 100 complete control)
Measured metric: Velvetleaf plant response rating
Respond with the number and no other words.

Exercise: Which measured Velvetleaf plant response rating value corresponds to CCCOc1cnn(-c2c(C#N)cccc2Oc2ncc(Cl)cn2)c1 [Compound 150] ?
Key: 5

Exercise: Next: Cc1cnc(Oc2cccc(C#N)c2-n2cc(I)cn2)nc1 [Compound 136]
Key: 5

Exercise: Next: Fc1cccc(Oc2ncc(Cl)cn2)c1-n1cc(I)cn1 [Compound 179]
Key: 60

Exercise: Next: N#Cc1cccc(Oc2ncc(F)cn2)c1-n1cc(I)cn1 [Compound 86]
Key: 20

Exercise: Next: Clc1cnc(Oc2cccc(Br)c2-n2cc(Br)nn2)nc1 [Compound 129]
Key: 35

###

tested on: hairy beggarticks; experiment: Test E preemergence; type: in vivo, Bidens pilosa; details: preemergence; 125 g ai/ha; scale 0 to 100, 0 no effect, 100 complete control
Measured metric: Plant response rating, Beggarticks
Respond with the number and no other words.

Some entries whose results are on file:
Molecule | Plant response rating, Beggarticks
FC(F)(F)c1cnn(-c2c(Cl)cccc2Oc2ncc(Cl)cn2)c1 [Compound 167] | 0
FC(F)(F)COc1cnn(-c2ccccc2Oc2ncc(Cl)cn2)c1 [Compound 138] | 0
N#Cc1cccc(Oc2ncc(F)cn2)c1-n1cc(I)cn1 [Compound 86] | 70

Would you kindly look at the next entry?
Exercise: Identify the measured Plant response rating, Beggarticks of FC(F)(F)c1cnn(-c2ccccc2Oc2ncc(Br)cn2)c1 [Compound 18] for hairy beggarticks.
Key: 0

###

A collection of compounds and their measured Foxtail, Giant plant response rating
system: giant foxtail; test: Test A preemergence; type: in vivo, Setaria faberii; details: 500 g ai/ha, 0 to 100 scale, 0 no effect, 100 complete control, approx. 10 days
Respond with the number and no other words.

Smiles input | Foxtail, Giant plant response rating
Clc1cnc(Oc2ccccc2-n2cnc(Br)n2)nc1 | 80
Cc1nn(-c2ccccc2Oc2ncc(Cl)cn2)cc1Br | 30
N#Cc1cccc(Oc2ncc(I)cn2)c1-n1cc(Cl)cn1 | 100
N#Cc1cccc(Oc2ncc(Cl)cn2)c1-n1cnc(Br)c1 | 100
FC(F)(F)c1ccn(-c2ccccc2Oc2ncc(Br)cn2)n1 | 100
Cc1ccc(Oc2ncc(Cl)cn2)c(-n2cc(Br)cn2)c1 | 60

Would you kindly look at the next entry?
Exercise: Identify the measured Foxtail, Giant plant response rating of CCOc1cnn(-c2c(C#N)cccc2Oc2ncc(Cl)cn2)c1 for giant foxtail.
Key: 100
